Data provenance is patent US7262151B2.

# System: nod genes in Bradyrhizobium japonicum strain USDA31
# EXPERIMENT DESCRIPTION: nod gene induction, β-galactosidase assay, strain USDA31 (GG1)
# Assay type: cell-based
# MEASUREMENT CONTEXT: 10 μM, control 522.6 ± 15.9
Each record is given True if its reported nod gene induction (β-galactosidase activity) is strictly below 2000. Records at or above 2000 are given False.

compound=CC(=O)Oc1ccccc1C(=O)O target_or_test_system="nod genes in Bradyrhizobium japonicum strain USDA31" assigned_category=True
compound=CC/C=C\C[C@H]1C(=O)CC[C@@H]1CC(=O)O target_or_test_system="nod genes in Bradyrhizobium japonicum strain USDA31" assigned_category=False
compound="O=C(O)c1ccccc1O [SA, 2-hydroxybenzoic acid]" target_or_test_system="nod genes in Bradyrhizobium japonicum strain USDA31" assigned_category=True
compound="CC/C=C\\CC1C(=O)CCC1CC(=O)OC (centres unmarked) [MeJA, methyl jasmonate]" target_or_test_system="nod genes in Bradyrhizobium japonicum strain USDA31" assigned_category=True

====

# Tested on: nod genes in Bradyrhizobium japonicum strain USDA121
# EXPERIMENT DESCRIPTION: nod gene induction, β-galactosidase assay, strain USDA121 (GG3)
# Format: cell-based
# MEASUREMENT CONTEXT: 100 μM, control 476.8 ± 86.6
Each record is given 1 (yes) if its reported nod gene induction (β-galactosidase activity) is strictly below 400. Records at or above 400 are given 0 (no).

compound="CC(=O)Oc1ccccc1C(=O)O [ASA, acetylsalicylic acid]" assigned_category="1 (yes)"
compound="CC/C=C\\CC1C(=O)CCC1CC(=O)OC (centres unmarked) [MeJA, methyl jasmonate]" assigned_category="0 (no)"
compound="O=c1c(-c2ccc(O)cc2)coc2cc(O)cc(O)c12 [GEN, 5,7,4′-trihydroxyisoflavone]" assigned_category="0 (no)"
compound="O=C(O)c1ccccc1O [SA, 2-hydroxybenzoic acid]" assigned_category="1 (yes)"
compound="CC/C=C\\C[C@H]1C(=O)CC[C@@H]1CC(=O)O [JA]" assigned_category="1 (yes)"

====

# Test system: nod genes in Bradyrhizobium japonicum strain USDA121
# EXPERIMENT DESCRIPTION: nod gene induction, β-galactosidase assay, strain USDA121 (GG3)
# Assay type: cell-based
# MEASUREMENT CONTEXT: 25 μM, control 476.8 ± 86.6
METRIC: nod gene induction (β-galactosidase activity)

compound=CC(=O)Oc1ccccc1C(=O)O target_or_test_system="nod genes in Bradyrhizobium japonicum strain USDA121" reported_measurement="479.9 ± 88.6"
compound="O=c1c(-c2ccc(O)cc2)coc2cc(O)cc(O)c12 [GEN, 5,7,4′-trihydroxyisoflavone]" target_or_test_system="nod genes in Bradyrhizobium japonicum strain USDA121" reported_measurement="1286.8 ± 145.5"
compound="O=C(O)c1ccccc1O [SA, 2-hydroxybenzoic acid]" target_or_test_system="nod genes in Bradyrhizobium japonicum strain USDA121" reported_measurement="435.8 ± 69.2"
compound="CC/C=C\\CC1C(=O)CCC1CC(=O)OC (centres unmarked) [MeJA, methyl jasmonate]" target_or_test_system="nod genes in Bradyrhizobium japonicum strain USDA121" reported_measurement="427 ± 29.4"
compound=CC/C=C\C[C@H]1C(=O)CC[C@@H]1CC(=O)O target_or_test_system="nod genes in Bradyrhizobium japonicum strain USDA121" reported_measurement="496 ± 49.2"

====

# System: nod genes in Bradyrhizobium japonicum strain USDA31
# EXPERIMENT DESCRIPTION: nod gene induction, β-galactosidase assay, strain USDA31 (GG1)
# Type: cell-based
# MEASUREMENT CONTEXT: 5 μM, control without inducer 522.6 ± 15.9
Each entry below carries its reported nod gene induction (β-galactosidase activity).
METRIC: nod gene induction (β-galactosidase activity)

molecule="CC/C=C\\CC1C(=O)CCC1CC(=O)OC (centres unmarked) [MeJA, methyl jasmonate]" target_or_test_system="nod genes in Bradyrhizobium japonicum strain USDA31" reported_measurement=472.2
molecule="O=C(O)c1ccccc1O [SA, 2-hydroxybenzoic acid]" target_or_test_system="nod genes in Bradyrhizobium japonicum strain USDA31" reported_measurement=587
molecule="O=c1c(-c2ccc(O)cc2)coc2cc(O)cc(O)c12 [GEN, 5,7,4′-trihydroxyisoflavone]" target_or_test_system="nod genes in Bradyrhizobium japonicum strain USDA31" reported_measurement=2283.8
molecule=CC/C=C\C[C@H]1C(=O)CC[C@@H]1CC(=O)O target_or_test_system="nod genes in Bradyrhizobium japonicum strain USDA31" reported_measurement=1653.3
molecule=CC(=O)Oc1ccccc1C(=O)O target_or_test_system="nod genes in Bradyrhizobium japonicum strain USDA31" reported_measurement=636.5

====

# Tested on: nod genes in Bradyrhizobium japonicum strain USDA76
# EXPERIMENT DESCRIPTION: nod gene induction, β-galactosidase assay, strain USDA 76 (GG2)
# Assay type: cell-based
# MEASUREMENT CONTEXT: 10 μM, control 411.8 ± 26.8
METRIC: nod gene induction (β-galactosidase activity)

compound=CC(=O)Oc1ccccc1C(=O)O reported_measurement=341
compound=CC/C=C\C[C@H]1C(=O)CC[C@@H]1CC(=O)O reported_measurement=447.9
compound="O=C(O)c1ccccc1O [SA, 2-hydroxybenzoic acid]" reported_measurement=411.8
compound="O=c1c(-c2ccc(O)cc2)coc2cc(O)cc(O)c12 [GEN, 5,7,4′-trihydroxyisoflavone]" reported_measurement=1320.8
compound="CC/C=C\\CC1C(=O)CCC1CC(=O)OC (centres unmarked) [MeJA, methyl jasmonate]" reported_measurement=418.4

====

# System: nod genes in Bradyrhizobium japonicum strain USDA121
# EXPERIMENT DESCRIPTION: nod gene induction, β-galactosidase assay, strain USDA121 (GG3)
# Format: cell-based
# MEASUREMENT CONTEXT: 50 μM, control 476.8 ± 86.6
METRIC: nod gene induction (β-galactosidase activity)

compound="O=C(O)c1ccccc1O [SA, 2-hydroxybenzoic acid]" reported_measurement="434.2 ± 26.3"
compound=CC(=O)Oc1ccccc1C(=O)O reported_measurement="445.4 ± 99"
compound="O=c1c(-c2ccc(O)cc2)coc2cc(O)cc(O)c12 [GEN, 5,7,4′-trihydroxyisoflavone]" reported_measurement="1154.5 ± 121.1"
compound=CC/C=C\C[C@H]1C(=O)CC[C@@H]1CC(=O)O reported_measurement="412.7 ± 22.9"
compound="CC/C=C\\CC1C(=O)CCC1CC(=O)OC (centres unmarked) [MeJA, methyl jasmonate]" reported_measurement="549.2 ± 81.6"

====

# Test system: nod genes in Bradyrhizobium japonicum strain USDA31
# EXPERIMENT DESCRIPTION: nod gene induction, β-galactosidase assay, strain USDA31 (GG1)
# Type: cell-based
# MEASUREMENT CONTEXT: 50 μM, control 522.6 ± 15.9
# Procedure: Bacteria were grown in yeast extract mannitol (YEM) medium (mannitol 10.0 g, K2HPO4 0.5 g, MgSO4.7H2O 0.2 g, NaCl 0.1 g, and yeast extract 0.4 g dissolved in 1000 mL of dd H2O). […] β-galactosidase is an enzyme which hydrolyzes β-D-galactosides. The activity of this enzyme can easily be measured with colorless substrates, which upon hydrolysis produce colored products. […] The O-nitrophenol is yellow and can be measured by its absorption at 420 nm. […]
Each record is given 1 (yes) if its reported nod gene induction (β-galactosidase activity) is strictly below 700. Records at or above 700 are given 0 (no).

compound="O=c1c(-c2ccc(O)cc2)coc2cc(O)cc(O)c12 [GEN, 5,7,4′-trihydroxyisoflavone]" assigned_category="0 (no)"
compound="CC/C=C\\C[C@H]1C(=O)CC[C@@H]1CC(=O)O [JA]" assigned_category="0 (no)"
compound="CC(=O)Oc1ccccc1C(=O)O [ASA, acetylsalicylic acid]" assigned_category="1 (yes)"
compound="CC/C=C\\CC1C(=O)CCC1CC(=O)OC (centres unmarked) [MeJA, methyl jasmonate]" assigned_category="1 (yes)"
compound="O=C(O)c1ccccc1O [SA, 2-hydroxybenzoic acid]" assigned_category="1 (yes)"

====

Each entry below carries its reported nod gene induction (β-galactosidase activity).
# Tested on: nod genes in Bradyrhizobium japonicum strain USDA3
# Format: cell-based
# MEASUREMENT CONTEXT: USDA3 (GG4); 5 μM; control 362 ± 25
# Excerpt: Bradyrhizobium japonicum strain USDA3, harboring plasmid GG4, was used in the experiment. Plasmid GG4 contains a translational fusion between B. japonicum nod Y open-reading frame and lac Z of Escherichia coli. […] β-galactosidase is an enzyme which hydrolyzes β-D-galactosides. The activity of this enzyme can easily be measured with colorless substrates, which upon hydrolysis produce colored products. […] The O-nitrophenol is yellow and can be measured by its absorption at 420 nm. […]
METRIC: nod gene induction (β-galactosidase activity)

molecule="CC(=O)Oc1ccccc1C(=O)O [ASA, acetylsalicylic acid]" reported_measurement=396
molecule="O=c1c(-c2ccc(O)cc2)coc2cc(O)cc(O)c12 [GEN, 5,7,4′-trihydroxyisoflavone]" reported_measurement=3304
molecule="CC/C=C\\C[C@H]1C(=O)CC[C@@H]1CC(=O)O [JA]" reported_measurement=368
molecule="O=C(O)c1ccccc1O [SA, 2-hydroxybenzoic acid]" reported_measurement=398
molecule="CC/C=C\\CC1C(=O)CCC1CC(=O)OC (centres unmarked) [MeJA, methyl jasmonate]" reported_measurement=448
